- System: NOTCH1
- Experimental Details: 3' UTR reporter interaction score (median-centred robust z-score of log2 firefly/Renilla activity); higher = less repression of the 3' UTR reporter
- Condition Summary: HEK293T; 48 h
Readout Type: 3' UTR reporter interaction score
# answer = number (no unit)

Use these answered entries as a reference point.
Req: Consider the sequence UACCCUGUAGAACCGAAUUUGU and give its measured 3' UTR reporter interaction score.
Resp: -1.66

Req: Can you check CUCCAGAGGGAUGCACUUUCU next?
Resp: 0.885

Req: Please answer likewise for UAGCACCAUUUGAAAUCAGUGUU
Resp: 0.166

Next:
Req: Would you mind telling me what 3' UTR reporter interaction score value was observed for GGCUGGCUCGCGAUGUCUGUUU ?
Resp: -0.649

Req: Please do the same for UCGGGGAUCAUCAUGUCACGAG as well.
Resp: -0.696

Req: Can you check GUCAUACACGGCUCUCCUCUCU next?
Resp: 0.867

// data source = the supplement of paper PMC5844555
